- TEST_TARGET: Fyn (UniProt P06241)
- Sequence (P06241 whole entry, looked up): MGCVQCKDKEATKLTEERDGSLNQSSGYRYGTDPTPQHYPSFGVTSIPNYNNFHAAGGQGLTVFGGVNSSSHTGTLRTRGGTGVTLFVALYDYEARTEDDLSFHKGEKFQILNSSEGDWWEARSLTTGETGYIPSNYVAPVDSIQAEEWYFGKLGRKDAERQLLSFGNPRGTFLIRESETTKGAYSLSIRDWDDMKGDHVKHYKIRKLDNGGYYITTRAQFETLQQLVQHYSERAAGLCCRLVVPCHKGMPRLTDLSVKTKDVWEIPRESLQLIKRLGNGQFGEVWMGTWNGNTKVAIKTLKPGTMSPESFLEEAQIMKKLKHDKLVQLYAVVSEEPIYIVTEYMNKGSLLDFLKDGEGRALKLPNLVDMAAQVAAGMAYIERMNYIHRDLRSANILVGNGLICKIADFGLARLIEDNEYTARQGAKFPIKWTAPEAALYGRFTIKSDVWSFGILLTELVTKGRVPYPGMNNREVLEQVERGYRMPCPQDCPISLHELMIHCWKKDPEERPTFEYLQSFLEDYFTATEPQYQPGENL
- METHOD_NOTES: phosphorylation enrichment, bacterial display (enrichment ratio); higher = better substrate or ligand; peptides without Tyr show the background;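 note: 11-residue human phosphosite peptides and single-mutation variants displayed on the E. coli surface, counted by deep sequencing, each peptide's frequency after selection divided by its frequency in the unselected input library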;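 note: frequency after pTyr selection over input frequency; kinase dosed for 20-30% of maximal phosphorylation in three min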
// map phosphorylation enrichment onto a label; ranges low: < 0.5; moderate: ≥ 0.5 and < 0.6; high: ≥ 0.6

MONOMER_SEQUENCE: CEHRGCLYLAI [TEK_Y897_Y897C]
CLASS: low
--
MONOMER_SEQUENCE: PLDVEYFTLQI [TP53_Y327_G325V]
CLASS: high
--
MONOMER_SEQUENCE: RIVEIYTRRLQ [GCH1_Y175_S176T]
CLASS: moderate
--
MONOMER_SEQUENCE: LLVVLNKYRCY [PSEN1_Y154_Y154N]
CLASS: high
--
MONOMER_SEQUENCE: RRYLYYYSYLL [PTEN_Y177_V175L]
CLASS: high
--
MONOMER_SEQUENCE: LTEHGYSFTTT [ACTB_Y198_R196H]
CLASS: high
--
MONOMER_SEQUENCE: LLREWYLQDPY [SIX3_Y225]
CLASS: high
--
MONOMER_SEQUENCE: TVNIRYLLFPS [SERAC1_Y548_S543T]
CLASS: moderate
--
MONOMER_SEQUENCE: AHAGEYGAEAL [HBA1_Y25]
CLASS: low
--
MONOMER_SEQUENCE: SRIWVYNHFRW [BRCA2_Y2621_YF]
CLASS: low
--
MONOMER_SEQUENCE: KDAGDYKCKAK [LRIT3_Y326]
CLASS: low
--
MONOMER_SEQUENCE: RPGGRYPVARR [SHANK3_Y1569_S1566G]
CLASS: high
--
MONOMER_SEQUENCE: HDEPTYARSSK [PEAK1_Y616]
CLASS: moderate
--
MONOMER_SEQUENCE: GVRLFYRVMES [RB1_Y454_YF]
CLASS: low
--
MONOMER_SEQUENCE: PKGWNYELPAT [PROM1_Y34_A31G]
CLASS: moderate
--
MONOMER_SEQUENCE: KKGIVYVFNGR [ITGAV_Y404_I405V]
CLASS: low
--
MONOMER_SEQUENCE: ARKWGYTVKGI [OAT_Y158]
CLASS: low
--
MONOMER_SEQUENCE: CTTIHYNFRCN [TP53_Y234_M237R_YF]
CLASS: low
--
MONOMER_SEQUENCE: LNPLIYTLKNA [OR4C46_Y285]
CLASS: high
--
MONOMER_SEQUENCE: SARFPYLMAEK [LDHB_Y173_R172P]
CLASS: low
--
MONOMER_SEQUENCE: CVAARYMDVKG [WFIKKN2_Y93]
CLASS: low
--
MONOMER_SEQUENCE: GHEFIYVDPMQ [PDGFRA_Y574_YF]
CLASS: high
--
MONOMER_SEQUENCE: KSAAIYNPVIF [RHO_Y301_YF]
CLASS: high
--
MONOMER_SEQUENCE: VIKDKYPQARY [APTX_Y209_K211Q]
CLASS: low
--
MONOMER_SEQUENCE: HITQVYGFFDE [PPP2CA_Y127_Q122H_YF]
CLASS: high
--
MONOMER_SEQUENCE: KKDGPYDVVVL [PARK7_Y67_E64D]
CLASS: moderate
--
MONOMER_SEQUENCE: EFFDGYWEFSV [ITGA2B_Y265_G267E_YF]
CLASS: high
--
MONOMER_SEQUENCE: LFLASYCIGGG [UBD_Y161_C160S]
CLASS: low
